target: panel of 255 wild-type kinases (Homo sapiens); test: Kinase panel profiling at 1 µmol/L (MSA or IMAP), percentage inhibition; type: biochemical; conditions: ACK kinase assay; 1 µmol/L single concentration; read-out: %-inhibition ACK
Sequence (Q07912 whole entry): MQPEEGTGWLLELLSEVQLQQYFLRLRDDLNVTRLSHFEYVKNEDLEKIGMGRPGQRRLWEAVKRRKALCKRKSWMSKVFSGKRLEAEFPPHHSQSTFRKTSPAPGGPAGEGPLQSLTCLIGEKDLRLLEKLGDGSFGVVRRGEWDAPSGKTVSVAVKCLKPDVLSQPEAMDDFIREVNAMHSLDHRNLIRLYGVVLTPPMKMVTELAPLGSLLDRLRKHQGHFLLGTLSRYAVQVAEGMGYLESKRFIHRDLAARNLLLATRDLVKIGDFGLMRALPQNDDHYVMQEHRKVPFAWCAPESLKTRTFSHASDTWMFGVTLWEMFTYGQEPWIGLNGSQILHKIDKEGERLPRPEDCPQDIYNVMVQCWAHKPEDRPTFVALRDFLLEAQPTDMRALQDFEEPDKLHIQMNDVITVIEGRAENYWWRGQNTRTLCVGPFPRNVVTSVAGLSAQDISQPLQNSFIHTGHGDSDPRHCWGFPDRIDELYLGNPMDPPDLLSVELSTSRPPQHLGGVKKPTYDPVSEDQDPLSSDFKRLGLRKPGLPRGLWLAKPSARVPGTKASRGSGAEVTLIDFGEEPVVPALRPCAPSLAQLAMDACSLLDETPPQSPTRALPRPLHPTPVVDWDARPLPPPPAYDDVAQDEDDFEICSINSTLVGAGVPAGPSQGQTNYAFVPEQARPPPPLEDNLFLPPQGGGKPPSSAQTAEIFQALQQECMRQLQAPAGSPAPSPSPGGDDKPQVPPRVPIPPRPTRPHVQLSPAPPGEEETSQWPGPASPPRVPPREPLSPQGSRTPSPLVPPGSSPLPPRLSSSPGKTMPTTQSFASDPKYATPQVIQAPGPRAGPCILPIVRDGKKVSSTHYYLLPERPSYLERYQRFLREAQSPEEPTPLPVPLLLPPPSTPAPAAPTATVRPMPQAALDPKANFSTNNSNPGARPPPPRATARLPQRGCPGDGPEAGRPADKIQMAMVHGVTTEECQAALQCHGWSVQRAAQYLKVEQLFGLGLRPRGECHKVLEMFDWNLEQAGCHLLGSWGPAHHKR
For each of the compounds below, state its inhibition at 1 µM.
Answers are plain numbers, in %.

C=CC(=O)N1CCC([C@@H]2CCNc3c(C(N)=O)c(-c4ccc(Oc5ccccc5)cc4)nn32)CC1 [zanubrutinib] | 11

Parameter requested: inhibition at 1 µM. Apply to each item below.
1. CCN1CCN(c2ccc(Nc3cc(N(C)C(=O)Nc4c(Cl)c(OC)cc(OC)c4Cl)ncn3)cc2)CC1 [infigratinib]
2. CCc1nc(C(N)=O)c(Nc2ccc(N3CCC(N4CCN(C)CC4)CC3)c(OC)c2)nc1NC1CCOCC1 [gilteritinib]
3. O=C(Nc1cnn2ccc(N3CCC[C@@H]3c3cc(F)ccc3F)nc12)N1CC[C@H](O)C1 [larotrectinib]

1: 43; 2: 90; 3: 52

These measurements were taken from paper PMC9516332.
